The measured values listed here are drawn from patent US20250376529A1.

# TARGET_UNDER_TEST: T1, Rhesus GIPR (rhesus, UniProt F7E1R9 22-466)
# T1 sequence: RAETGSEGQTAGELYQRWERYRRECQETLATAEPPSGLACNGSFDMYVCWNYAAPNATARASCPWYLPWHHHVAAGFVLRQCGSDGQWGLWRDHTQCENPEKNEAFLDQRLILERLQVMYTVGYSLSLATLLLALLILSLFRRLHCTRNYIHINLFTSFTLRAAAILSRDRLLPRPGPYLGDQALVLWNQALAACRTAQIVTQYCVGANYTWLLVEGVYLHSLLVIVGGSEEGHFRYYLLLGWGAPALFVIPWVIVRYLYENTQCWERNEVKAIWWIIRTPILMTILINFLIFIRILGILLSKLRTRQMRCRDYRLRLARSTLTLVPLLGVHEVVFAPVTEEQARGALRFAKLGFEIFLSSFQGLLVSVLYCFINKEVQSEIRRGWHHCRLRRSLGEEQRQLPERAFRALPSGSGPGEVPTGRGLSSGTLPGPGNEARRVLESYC
# ASSAY_PROTOCOL: cell-based or functional assay
MEASURED_ENDPOINT: Rhesus GIPR CAMP Assay (Conc. mAb @ 60% Inhibition in nM)
Please respond with the number in nM and leave the unit unwritten.

## Task Entry 12H11.003 (antibody, human IgG1, kappa, N297G, V domains shown) VH: QVPLVQSGAEVKKPGASVKVSCKASGYTFTGYYIHWVRQAPGQGLEWMGWISPNQGDTNYAQKFQDRVTMTRDTSISTAYMELSRLRSDDTAVYYCAREATIFGMLIVPFDYWGQGTLVTVSS VL: DIVMTQSPDSLSVSLGERATINCKSSQSVLSSSNNKNYLAWYQQKPGQPPNLLIYWTSTRDSGVPDRFSGSGSGTDFTLTINSLQAEDVAVYYCQQYYRTPWTFGQGTKVEIKR has what Rhesus GIPR CAMP Assay (Conc. mAb @ 60% Inhibition in nM)?
## Result 0.6
